# system.name: Toll-like receptor 9 (Homo sapiens, UniProt Q9NR96)
# Sequence (Q9NR96 whole entry): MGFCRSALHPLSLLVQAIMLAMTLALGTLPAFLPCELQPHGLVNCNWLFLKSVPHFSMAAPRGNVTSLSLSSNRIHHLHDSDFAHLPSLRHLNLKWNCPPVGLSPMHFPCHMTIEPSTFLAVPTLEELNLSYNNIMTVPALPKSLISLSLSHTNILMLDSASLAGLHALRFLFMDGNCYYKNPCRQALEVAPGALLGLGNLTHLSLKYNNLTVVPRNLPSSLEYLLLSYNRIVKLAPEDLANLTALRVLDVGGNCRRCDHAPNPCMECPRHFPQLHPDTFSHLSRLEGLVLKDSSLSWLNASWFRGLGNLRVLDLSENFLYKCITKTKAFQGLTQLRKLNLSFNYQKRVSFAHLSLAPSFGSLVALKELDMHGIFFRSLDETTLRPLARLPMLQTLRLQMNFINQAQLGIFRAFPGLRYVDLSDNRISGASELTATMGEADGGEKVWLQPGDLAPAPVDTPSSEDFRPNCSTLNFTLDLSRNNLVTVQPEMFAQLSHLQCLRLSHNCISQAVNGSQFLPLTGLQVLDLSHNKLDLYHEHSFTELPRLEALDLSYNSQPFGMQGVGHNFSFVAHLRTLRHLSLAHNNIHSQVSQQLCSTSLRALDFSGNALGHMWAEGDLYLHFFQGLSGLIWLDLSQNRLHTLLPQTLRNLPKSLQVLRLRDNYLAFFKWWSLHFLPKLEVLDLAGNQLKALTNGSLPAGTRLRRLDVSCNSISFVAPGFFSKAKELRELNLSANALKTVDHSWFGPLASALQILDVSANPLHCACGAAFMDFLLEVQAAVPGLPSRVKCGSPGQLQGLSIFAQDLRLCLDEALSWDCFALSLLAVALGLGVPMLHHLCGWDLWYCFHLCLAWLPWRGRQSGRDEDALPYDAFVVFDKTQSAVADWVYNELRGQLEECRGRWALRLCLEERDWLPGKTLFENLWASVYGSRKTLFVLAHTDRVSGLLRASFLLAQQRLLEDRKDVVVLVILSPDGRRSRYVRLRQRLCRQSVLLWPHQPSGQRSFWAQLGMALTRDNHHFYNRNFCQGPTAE
# procedure.text: Antagonist activity at TLR9 in human PBMC cells assessed as reduction in IFN alpha measured after 20 hrs by AlphaLISA assay
# Assay type: cell-based
Items are presented alongside their recorded pIC50.
Hey, just a heads up that pIC50 is the negative log base 10 of the concentration in molar.

Here's what some known entries look like.
> print(dat)
                           substance.smiles  measured.parameter  result.value
1  Cc1cc(N2CCc3c(c(C)nn3CC34CCC(N5CCC5)(CC3)CC4)C2)c2cnn(C)c2n1               pIC50          6.28
2  CCNCC(=O)NC12CCC(Cn3nc(C)c4c3CCN(c3cc(C)nc5c3cnn5C)C4)(CC1)CC2               pIC50          6.09
3  Cc1cc(N2CCc3c(c(C)nn3CC34CCC(N5CCCC5)(CC3)CC4)C2)c2cnn(C)c2n1               pIC50          6.46

Consider the additional molecule presented here.
Can you look up the measured pIC50 of CNC12CCC(Cn3nc(C)c4c3CCN(c3cc(C)nc5c3cnn5C)C4)(CC1)CC2 for me?
6.36

====

Here the recorded microsomal CLint is given for each entry.
# procedure.text: Metabolic stability in rat liver microsomes assessed as intrinsic clearance
# Type: ADME, Microsome
# measurement.setup: read-out: CLH

> print(dat)
                           substance.smiles  measured.parameter    result.value
1  COCCNC12CCC(Cn3nc(C)c4c3CCN(c3cc(C)nc5c3cnn5C)C4)(CC1)CC2    microsomal CLint  < 15 µL/min/mg

Give its microsomal CLint value. Item: Cc1cc(N2CCc3c(c(C)nn3CC34CCC(NC(=O)CN5CCCC5)(CC3)CC4)C2)c2cnn(C)c2n1
< 15 µL/min/mg

And what about the compound CN[C@H](C)C(=O)NC12CCC(Cn3nc(C)c4c3CCN(c3cc(C)nc5c3cnn5C)C4)(CC1)CC2 ?
< 15 µL/min/mg

Here is the next compound: CCNCC(=O)NC12CCC(Cn3nc(C)c4c3CCN(c3cc(C)nc5c3cnn5C)C4)(CC1)CC2
< 15 µL/min/mg

====

# procedure.text: Permeability of the compound by PAMPA
# Format: ADME
measured.parameter: log(permeability)
Lab note: jot the number down without any unit.

> print(dat)
                           substance.smiles  measured.parameter  result.value
1  CNC12CCC(Cn3nc(C)c4c3CCN(c3cc(C)nc5c3cnn5C)C4)(CC1)CC2   log(permeability)          -5.3
2  Cc1cc(N2CCc3c(c(C)nn3CC34CCC(N5C[C@@H](C)O[C@@H](C)C5)(CC3)CC4)C2)c2cnn(C)c2n1   log(permeability)          -3.9
3  Cc1cc(N2CCc3c(c(C)nn3CC34CCC(N5CCC5)(CC3)CC4)C2)c2cnn(C)c2n1   log(permeability)          -4.7

Next item in the queue.
Please give the measured log(permeability) for this compound: Cc1cc(N2CCc3c(c(C)nn3CC34CCC(NC5CCC5)(CC3)CC4)C2)c2cnn(C)c2n1
-4.2

====

# procedure.text: Permeability of the compound by PAMPA
# Type: ADME
measured.parameter: log(permeability)
When you answer, write just the number.

> print(dat)
                           substance.smiles  result.value
1  COCCNC12CCC(Cn3nc(C)c4c3CCN(c3cc(C)nc5c3cnn5C)C4)(CC1)CC2          -4.8
2  CN[C@@H](C)C(=O)NC12CCC(Cn3nc(C)c4c3CCN(c3cc(C)nc5c3cnn5C)C4)(CC1)CC2          -5.3
3  CCN(C)CC(=O)NC12CCC(Cn3nc(C)c4c3CCN(c3cc(C)nc5c3cnn5C)C4)(CC1)CC2          -4.1

Field: next compound
Record request: log(permeability) value, item CN[C@H](C)C(=O)NC12CCC(Cn3nc(C)c4c3CCN(c3cc(C)nc5c3cnn5C)C4)(CC1)CC2
-5.3

====

# procedure.text: Metabolic stability in rat liver microsomes assessed as intrinsic clearance
# Format: ADME, Microsome
# measurement.setup: read-out: CLH
microsomal CLint vs 60 µL/min/mg: at or above is YES, below is NO.

Here's what some known entries look like.
> print(dat)
                           substance.smiles  cat
1  Cc1cc(N2CCc3c(c(C)nn3CC34CCC(NC(=O)CN5CCC5)(CC3)CC4)C2)c2cnn(C)c2n1   NO
2  CNC12CCC(Cn3nc(C)c4c3CCN(c3cc(C)nc5c3cnn5C)C4)(CC1)CC2   NO
3  Cc1cc(N2CCc3c(c(C)nn3CC34CCC(NC(=O)[C@H]5COCCN5)(CC3)CC4)C2)c2cnn(C)c2n1   NO
4  Cc1cc(N2CCc3c(c(C)nn3CC34CCC(N5CCOCC5)(CC3)CC4)C2)c2cnn(C)c2n1  YES
5  CCN(C)CC(=O)NC12CCC(Cn3nc(C)c4c3CCN(c3cc(C)nc5c3cnn5C)C4)(CC1)CC2   NO

Would you kindly look at the next entry?
Hello, I need to know if Cc1cc(N2CCc3c(c(C)nn3CC34CCC(N5C[C@@H](C)O[C@@H](C)C5)(CC3)CC4)C2)c2cnn(C)c2n1 has measured microsomal CLint not below 60 µL/min/mg. Thanks!
NO

====

# procedure.text: Metabolic stability in rat liver microsomes assessed as intrinsic clearance
# Format: ADME, Microsome
# measurement.setup: read-out: CLH
measured.parameter: microsomal CLint (µL/min/mg)
Give a bare numeral; the unit µL/min/mg is implied.

What does the record list as microsomal CLint for Cc1cc(N2CCc3c(c(C)nn3CC34CCC(N(C)C)(CC3)CC4)C2)c2cnn(C)c2n1 ?
36

Same for Cc1cc(N2CCc3c(c(C)nn3CC34CCC(NC(=O)CN(C)C)(CC3)CC4)C2)c2cnn(C)c2n1
33

Consider next the compound Cc1cc(N2CCc3c(c(C)nn3CC34CCC(NS(C)(=O)=O)(CC3)CC4)C2)c2cnn(C)c2n1 in the same way.
78

// next record Cc1cc(N2CCc3c(c(C)nn3CC34CCC(NC5CCC5)(CC3)CC4)C2)c2cnn(C)c2n1
28

Now consider Cc1cc(N2CCc3c(c(C)nn3CC34CCC(NC(=O)[C@@H]5COCCN5)(CC3)CC4)C2)c2cnn(C)c2n1 [MHV-370] and answer again.
17

Queued: Cc1cc(N2CCc3c(c(C)nn3CC34CCC(NC5COC5)(CC3)CC4)C2)c2cnn(C)c2n1
67

Now give it for Cc1cc(N2CCc3c(c(C)nn3CC34CCC(NCC(F)F)(CC3)CC4)C2)c2cnn(C)c2n1 too.
656

Thanks! And Cc1cc(N2CCc3c(c(C)nn3CC34CCC(N5CCC5)(CC3)CC4)C2)c2cnn(C)c2n1 ?
30

Numbers sourced from ChEMBL document CHEMBL5360657.
